MIC for assorted compounds
tested on: M. kansasii 6509/96 (clinically isolated); test: microbe, parasite or virus in culture; assay type: cell-based; settings: Mycobacterium kansasii, 504 h; 21 d, 37 °C; read-out: MIC M. kansasii 6509/96 21 d
endpointName: MIC

{"compound": "CCOP(=S)(OCC)Oc1ccc(Br)cc1C(=O)Nc1ccc(Cl)cc1 [1b]", "readoutValue": "500 µM"}
{"compound": "CCOP(=S)(OCC)Oc1cc(Cl)ccc1C(=O)Nc1cccc(C(F)(F)F)c1 [1z]", "readoutValue": "125 µM"}
{"compound": "CCOP(=S)(OCC)Oc1cc(Cl)ccc1C(=O)Nc1cccc(Cl)c1 [1s]", "readoutValue": "125 µM"}
{"compound": "CCOP(=S)(OCC)Oc1cc(Cl)ccc1C(=O)Nc1ccc(Br)cc1 [1w]", "readoutValue": "62.5 µM"}
{"compound": "CCOP(=S)(OCC)Oc1cc(Cl)ccc1C(=O)Nc1ccc(Cl)c(Cl)c1 [1u]", "readoutValue": "62.5 µM"}
{"compound": "CCOP(=S)(OCC)Oc1ccc(Cl)cc1C(=O)Nc1cccc(C(F)(F)F)c1 [1q]", "readoutValue": "500 µM"}
{"compound": "CCOP(=S)(OCC)Oc1cc(Cl)ccc1C(=O)Nc1ccc(Cl)cc1 [1t]", "readoutValue": "62.5 µM"}
{"compound": "CCOP(=S)(OCC)Oc1ccc(Br)cc1C(=O)Nc1ccc(Br)cc1 [1e]", "readoutValue": "250 µM"}
{"compound": "CCOP(=S)(OCC)Oc1cc(Cl)ccc1C(=O)Nc1cccc(F)c1 [1x]", "readoutValue": "250 µM"}
{"compound": "CCOP(=S)(OCC)Oc1ccc(Cl)cc1C(=O)Nc1cccc(Br)c1 [1m]", "readoutValue": "500 µM"}
{"compound": "CCOP(=S)(OCC)Oc1ccc(Br)cc1C(=O)Nc1cccc(Br)c1 [1d]", "readoutValue": "125 µM"}
{"compound": "CCOP(=S)(OCC)Oc1ccc(Cl)cc1C(=O)Nc1ccc(Br)cc1 [1n]", "readoutValue": "500 µM"}
{"compound": "CCOP(=S)(OCC)Oc1cc(Cl)ccc1C(=O)Nc1ccc(F)cc1 [1y]", "readoutValue": "500 µM"}
{"compound": "CCOP(=S)(OCC)Oc1ccc(Br)cc1C(=O)Nc1ccc(Cl)c(Cl)c1 [1c]", "readoutValue": "125 µM"}
{"compound": "CCOP(=S)(OCC)Oc1ccc(Br)cc1C(=O)Nc1cccc(Cl)c1 [1a]", "readoutValue": "500 µM"}
{"compound": "CCOP(=S)(OCC)Oc1ccc(Cl)cc1C(=O)Nc1ccc(Cl)c(Cl)c1 [1l]", "readoutValue": "250 µM"}
{"compound": "CCOP(=S)(OCC)Oc1ccc(Cl)cc1C(=O)Nc1cccc(Cl)c1 [1j]", "readoutValue": "500 µM"}
{"compound": "CCOP(=S)(OCC)Oc1ccc(Br)cc1C(=O)Nc1ccc(F)cc1 [1g]", "readoutValue": "250 µM"}
{"compound": "CCOP(=S)(OCC)Oc1ccc(Cl)cc1C(=O)Nc1ccc(C(F)(F)F)cc1 [1r]", "readoutValue": "250 µM"}
{"compound": "CCOP(=S)(OCC)Oc1cc(Cl)ccc1C(=O)Nc1ccc(C(F)(F)F)cc1 [1zz]", "readoutValue": "32 µM"}

Just for reference, paper PMC6271228 is where these values come from.
